Listing: TGI of selected compounds
- Tested on: MCF7 breast
- protocol.description: NCI tumour cell line growth inhibition, 48 h
endpoint: TGI

>>> value_measured("O=C1C(c2ccc([N+](=O)[O-])cc2)=C(Cl)C(=O)c2c(O)cccc21")
"37.7 µM"
>>> value_measured("CCCCOC(=O)CC(CC(=O)OCCCC)(OC(C)=O)C(=O)OCCCC")
"> 200 µM"
>>> value_measured("Cn1c(-c2ccncc2)c(-c2ccc(F)cc2)c2ncccc21")
"> 25 µM"
>>> value_measured("COc1ccc(C2SC(N)=Nc3c2c(C)nn3C(=O)Cc2ccccc2)cc1 (stereo not given)")
"> 100 µM"
>>> value_measured("CCCCC(=O)OC[n+]1ccc(-c2c(COC(=O)NC(C)C)c(COC(=O)NC(C)C)c3n2CCC3)cc1")
"> 100 µM"

###

Listing: TGI of selected compounds
- System: HT29 colon
- protocol.description: NCI tumour cell line growth inhibition, 48 h
endpoint: TGI

>>> value_measured("N#CC(C/C=C/c1ccccc1)NNC(=O)c1c(Cl)c(Cl)c(Cl)c(Cl)c1-c1nc2ccc(C(=O)c3ccccc3)cc2[nH]1 (stereo not drawn)")
"33.2 µM"
>>> value_measured("O=C(CN(/C=C/C(=O)C(F)(F)F)c1ccc(Cl)cc1)c1ccc(F)cc1")
"> 100 µM"
>>> value_measured("O=C1OCC2=C1C(c1ccc3c(c1)OCO3)c1cc3c(cc1O2)OCO3 (stereo not drawn)")
"3.54 µM"
>>> value_measured("COC[C@@H]1[C@H]2OC(C)(C)O[C@H]2C(=O)N1C(=O)c1ccc(OC)cc1")
"> 100 µM"
>>> value_measured("COc1cc([C@@H]2c3cc4c(cc3[C@@H](OC3OC5CO[C@@H](c6cccs6)OC5C(O)C3O)[C@H]3COC(=O)[C@H]23)OCO4)cc(OC)c1O (stereo partly drawn)")
"11.7 µM"
>>> value_measured("Cc1nc2cc(-c3nn(C(C)C)c4ncnc(N)c34)ccc2o1")
"> 5.34 µM"
>>> value_measured("O=c1ncc(I)cn1C1CC(O)C(CO)O1 (stereo not drawn)")
"> 3250 µM"
>>> value_measured("C[N+](C)(CCNc1ccc(NCC[N+](C)(C)Cc2ccc([N+](=O)[O-])cc2)c2c1C(=O)c1ccccc1C2=O)Cc1ccc([N+](=O)[O-])cc1")
"> 100 µM"
>>> value_measured("O=C1C=C(Nc2ccc(Br)cc2)c2ccccc2C1=O")
"34 µM"
>>> value_measured("COc1cc2nn(-c3ccccc3)nc2c2nonc12")
"> 100 µM"
>>> value_measured("CC/C=C/C(CC)C/C(C)=C\\[C@]1(CC)C[C@H](CC)[C@H](CC(=O)O)OO1 (stereo partly drawn)")
"1.83 µM"
>>> value_measured("Cn1nc(-c2cccc(-c3nn(C)c(=NCCO)s3)n2)sc1=NCCO")
"> 100 µM"
>>> value_measured("O=C(Nc1ccc(Cl)cc1)Nc1ccc(Cl)c(C(F)(F)F)c1")
"10.7 µM"
>>> value_measured("CC(=O)c1c(Nc2cccc(F)c2)[nH]c2c(Cl)cc(Cl)c(Cl)c2c1=O")
"> 100 µM"
>>> value_measured("O=[N+]([O-])c1ccc(C2CC(c3ccc(NCc4nc5ccccc5[nH]4)cc3)=NO2)cc1 (stereo not drawn)")
"> 100 µM"
>>> value_measured("CC(C)N(C(C)C)[PH+]1O[PH+](N(C(C)C)C(C)C)O[PH+](N(C(C)C)C(C)C)O[PH+](N(C(C)C)C(C)C)O1.[C-]#[O+].[C-]#[O+].[C-]#[O+].[C-]#[O+].[C-]#[O+].[C-]#[O+].[C-]#[O+].[C-]#[O+].[Mo].[Mo] (stereo not drawn)")
"> 100 µM"
>>> value_measured("Cc1cc(Cl)ccc1OCc1nn2c(CCCCc3nnc4sc(COc5ccc(Cl)cc5C)nn34)nnc2s1")
"> 100 µM"
>>> value_measured("O=c1oc2ccc(Cl)cc2c2ccccc12")
"> 100 µM"
>>> value_measured("O=C1OCCC1(Cc1ccc(Cl)cc1)Cc1ccc(Cl)cc1")
"> 100 µM"
>>> value_measured("Cn1cc(-c2csc(-c3c[nH]c4ccccc34)n2)c2cnccc21")
"4.26 µM"
>>> value_measured("Nc1nc2cc(O)ccc2n2cc3c(F)cccc3c12")
"> 100 µM"
>>> value_measured("O=S(O)CCCCCSSSCCCCCS(=O)O")
"> 100 µM"
>>> value_measured("CCc1ccc(C(=O)/C=C/C23c4ccccc4C(c4ccccc42)C2C(=O)NC(=O)C23)cc1 (stereo not drawn)")
"4.75 µM"
>>> value_measured("Nc1nc(Cl)c(N=Nc2ccc(Cl)cc2)c(NCC2(CO)CCC(CCc3ccccc3)C2)n1 (stereo not drawn)")
"30.4 µM"
>>> value_measured("O=c1c2cc(I)ccc2nc(Sc2ccc([N+](=O)[O-])cc2[N+](=O)[O-])n1Cc1ccccc1")
"13.6 µM"
>>> value_measured("COc1cc(O)c2c(c1)OCC1(Cc3cc(OC)c(OC)cc31)C2=O (stereo not drawn)")
"> 100 µM"
>>> value_measured("CCN=c1nc2sc3c(c2c(NC(=S)NCC)s1)CCN(N1CCc2c(sc4nc(=NCC)sc(NC(=S)NCC)c24)C1)C3")
"> 100 µM"
>>> value_measured("COc1cc(C(=O)N(C)N(C)C)cc(OC)c1OC")
"> 10 µM"
>>> value_measured("c1ccc(CC(Cc2ccccc2)C2=NCCCN2)cc1")
"> 100 µM"
>>> value_measured("[2H]c1nc(C)nc([2H])c1-c1cc(NC[C@@H](C)c2cccc3c(C(=O)NC)ccnc23)ncn1")
"> 100 µM"
>>> value_measured("CC1(C)CC[C@]2(C(=O)Nc3ccccn3)CC[C@]3(C)C(=CC[C@@H]4[C@@]5(C)C/C(=C/c6ccncc6)C(=O)C(C)(C)[C@@H]5CC[C@]43C)[C@@H]2C1")
"> 100 µM"
>>> value_measured("CCC(N)(C(=O)O)C(C)C (stereo not drawn)")
"> 100 µM"
>>> value_measured("COc1cc(C2CC(c3cccc(Nc4ccncc4)c3)=NN2c2ccccc2)cc(OC)c1OC (stereo not drawn)")
"4.53 µM"
>>> value_measured("Cc1ccc(S(=O)(=O)C(CC(NC=O)S(=O)(=O)c2ccc(C)cc2)NC=O)cc1 (stereo not drawn)")
"> 100 µM"
>>> value_measured("CCCN1C/C(=C\\c2ccc(O)c(OC)c2)C(=O)/C(=C/c2ccc(O)c(OC)c2)C1")
"> 100 µM"
>>> value_measured("CCOC(CNc1nn2c(C)nnc2s1)OCC")
"> 100 µM"
>>> value_measured("CCC(=O)OC1=C(c2ccccc2)Sc2ccc(Cl)cc2-n2cccc21")
"> 10 µM"
>>> value_measured("Cc1ccc(C2=Nc3c(N)nc(N)nc3NC(c3cccc(Nc4ccnc5cc(C(F)(F)F)ccc45)c3)C2)cc1 (stereo not drawn)")
"5.89 µM"
